Target: Long-chain-fatty-acid--AMP ligase FadD28 (Mycobacterium tuberculosis)
Sequence (P9WQ59 whole entry): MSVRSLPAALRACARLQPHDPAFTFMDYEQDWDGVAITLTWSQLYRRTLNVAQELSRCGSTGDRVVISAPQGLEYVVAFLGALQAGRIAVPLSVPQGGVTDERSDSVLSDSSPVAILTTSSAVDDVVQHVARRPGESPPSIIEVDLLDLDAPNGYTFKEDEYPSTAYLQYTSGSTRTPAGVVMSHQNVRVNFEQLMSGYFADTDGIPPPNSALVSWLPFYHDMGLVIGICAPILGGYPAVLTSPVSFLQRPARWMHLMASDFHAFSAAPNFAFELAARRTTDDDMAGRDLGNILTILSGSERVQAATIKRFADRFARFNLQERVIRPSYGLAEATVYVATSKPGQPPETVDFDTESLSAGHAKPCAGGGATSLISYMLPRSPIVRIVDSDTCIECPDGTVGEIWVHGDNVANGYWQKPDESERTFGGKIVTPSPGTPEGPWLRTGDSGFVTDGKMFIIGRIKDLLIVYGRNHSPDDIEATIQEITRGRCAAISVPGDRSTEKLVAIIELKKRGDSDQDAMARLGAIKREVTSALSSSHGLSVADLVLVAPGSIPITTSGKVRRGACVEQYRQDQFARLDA
Test: Inhibition of Mycobacterium tuberculosis H37Rv FAAL28 Spectra expressed in Escherichia coli BL21(DE3) cells assessed as cleavage of MEsG by spectroscopic analysis
Settings: read-out: Ki(app)
# key: entry, value: Ki
Property name: Ki

>  <Smiles representation>
Nc1ncnc2c1ncn2[C@@H]1O[C@H](COS(=O)(=O)NC(=O)CCCCCCCCCCOc2ccc(Cl)cc2)[C@@H](O)[C@H]1O

>  <Result>
2.2 µM

$$$$
>  <Smiles representation>
C#CCCCCCCCCC(=O)NS(=O)(=O)OC[C@H]1O[C@@H](n2cnc3c(N)ncnc32)[C@H](O)[C@@H]1O

>  <Result>
> 100 µM

$$$$
>  <Smiles representation>
Nc1ncnc2c1ncn2[C@@H]1O[C@H](COS(=O)(=O)NC(=O)CCCCCCCCCCOc2cccc(F)c2)[C@@H](O)[C@H]1O

>  <Result>
1.6 µM

$$$$
>  <Smiles representation>
CCCCOCCOCCOCC(=O)NS(=O)(=O)OC[C@H]1O[C@@H](n2cnc3c(N)ncnc32)[C@H](O)[C@@H]1O

>  <Result>
> 100 µM

$$$$
>  <Smiles representation>
Nc1ncnc2c1ncn2[C@@H]1O[C@H](COS(=O)(=O)NC(=O)CCCCCCCCCCO)[C@@H](O)[C@H]1O

>  <Result>
92.7 µM

$$$$
>  <Smiles representation>
Nc1ncnc2c1ncn2[C@@H]1O[C@H](CNS(=O)(=O)NC(=O)CCCCCCCCCCOc2ccccc2)[C@@H](O)[C@H]1O

>  <Result>
3.1 µM

$$$$
>  <Smiles representation>
Nc1ncnc2c1ncn2[C@@H]1O[C@H](COS(=O)(=O)NC(=O)CCCCCCCCCCOc2ccc(Br)cc2)[C@@H](O)[C@H]1O

>  <Result>
4 µM

$$$$

* * *

Molecular target: Medium/long-chain-fatty-acid--CoA/3-oxocholest-4-en-26-oate--CoA ligase (Mycobacterium tuberculosis)
Sequence (P9WQ51 whole entry): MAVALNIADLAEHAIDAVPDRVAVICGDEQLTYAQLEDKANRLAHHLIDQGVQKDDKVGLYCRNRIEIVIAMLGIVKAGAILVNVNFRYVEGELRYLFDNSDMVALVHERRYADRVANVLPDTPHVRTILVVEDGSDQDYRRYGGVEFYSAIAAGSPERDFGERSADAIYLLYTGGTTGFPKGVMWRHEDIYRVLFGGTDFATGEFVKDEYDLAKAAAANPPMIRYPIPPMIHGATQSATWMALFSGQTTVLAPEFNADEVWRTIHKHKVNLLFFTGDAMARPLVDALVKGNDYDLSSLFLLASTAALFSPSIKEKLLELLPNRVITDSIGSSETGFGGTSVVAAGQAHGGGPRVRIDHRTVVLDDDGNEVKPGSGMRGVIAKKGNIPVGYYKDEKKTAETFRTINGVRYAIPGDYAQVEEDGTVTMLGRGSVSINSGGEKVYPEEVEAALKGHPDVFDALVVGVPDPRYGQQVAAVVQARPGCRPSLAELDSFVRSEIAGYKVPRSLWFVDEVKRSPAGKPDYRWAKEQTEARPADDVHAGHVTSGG
Assay: Inhibition of Mycobacterium tuberculosis H37Rv FACL19 Spectra expressed in Escherichia coli BL21(DE3) cells assessed as cleavage of MEsG by spectroscopic analysis
Conditions: read-out: Ki(app)
# key: entry, value: Ki
Property name: Ki (µM)

>  <Smiles representation>
CCCCCCCCCCCCCCCCCC(=O)NS(=O)(=O)OC[C@H]1O[C@@H](n2cnc3c(N)ncnc32)[C@H](O)[C@@H]1O

>  <Cmp>
=

>  <Quantitative result>
2.4

$$$$
>  <Smiles representation>
C#CCCCCCCCCC(=O)NS(=O)(=O)OC[C@H]1O[C@@H](n2cnc3c(N)ncnc32)[C@H](O)[C@@H]1O

>  <Cmp>
>

>  <Quantitative result>
100

$$$$
>  <Smiles representation>
Nc1ncnc2c1ncn2[C@@H]1O[C@H](CNS(=O)(=O)NC(=O)CCCCCCCCCCOc2ccccc2)[C@@H](O)[C@H]1O

>  <Cmp>
>

>  <Quantitative result>
100

$$$$
>  <Smiles representation>
CCCCCCCCCCCCCC(=O)NS(=O)(=O)OC[C@H]1O[C@@H](n2cnc3c(N)ncnc32)[C@H](O)[C@@H]1O

>  <Cmp>
=

>  <Quantitative result>
10

$$$$
>  <Smiles representation>
Nc1ncnc2c1ncn2[C@@H]1O[C@H](COS(=O)(=O)NC(=O)CCCCCCCCCCOc2cccc(Cl)c2)[C@@H](O)[C@H]1O

>  <Cmp>
=

>  <Quantitative result>
26.4

$$$$
>  <Smiles representation>
CCCCCCCCC/C=C/C(=O)NS(=O)(=O)OC[C@H]1O[C@@H](n2cnc3c(N)ncnc32)[C@H](O)[C@@H]1O

>  <Cmp>
>

>  <Quantitative result>
100

$$$$
>  <Smiles representation>
COc1ccc(OCCCCCCCCCCC(=O)NS(=O)(=O)OC[C@H]2O[C@@H](n3cnc4c(N)ncnc43)[C@H](O)[C@@H]2O)cc1

>  <Cmp>
>

>  <Quantitative result>
100

$$$$
